# protocolNotes: Docetaxel stability test in solution (HPLC assay)
# Format: physicochemical
# details: normal saline solution; in solution; read-out: half-life of sample decomposition in solution (converted)
reportedEndpoint: half-life (days)
Field: numeric (days). Do not append units.

Problem: Find the recorded half-life belonging to CC(=O)O[C@@]12CO[C@@H]1C[C@H](O)[C@@]1(C)C(=O)[C@H](O)C3=C(C)[C@@H](OC(=O)[C@H](O)[C@@H](NC(=O)OC(C)(C)C)c4ccccc4)C[C@@](O)([C@@H](OC(=O)c4ccccc4)[C@H]21)C3(C)C (relative stereo) [Docetaxel, trihydrate] and report it.
Solution: 15.1
